Assign pKi to each entry below.
- MEASURED ON: T1, recombinant Angiotensin I converting enzyme, C-terminal catalytic site
- T1 chain: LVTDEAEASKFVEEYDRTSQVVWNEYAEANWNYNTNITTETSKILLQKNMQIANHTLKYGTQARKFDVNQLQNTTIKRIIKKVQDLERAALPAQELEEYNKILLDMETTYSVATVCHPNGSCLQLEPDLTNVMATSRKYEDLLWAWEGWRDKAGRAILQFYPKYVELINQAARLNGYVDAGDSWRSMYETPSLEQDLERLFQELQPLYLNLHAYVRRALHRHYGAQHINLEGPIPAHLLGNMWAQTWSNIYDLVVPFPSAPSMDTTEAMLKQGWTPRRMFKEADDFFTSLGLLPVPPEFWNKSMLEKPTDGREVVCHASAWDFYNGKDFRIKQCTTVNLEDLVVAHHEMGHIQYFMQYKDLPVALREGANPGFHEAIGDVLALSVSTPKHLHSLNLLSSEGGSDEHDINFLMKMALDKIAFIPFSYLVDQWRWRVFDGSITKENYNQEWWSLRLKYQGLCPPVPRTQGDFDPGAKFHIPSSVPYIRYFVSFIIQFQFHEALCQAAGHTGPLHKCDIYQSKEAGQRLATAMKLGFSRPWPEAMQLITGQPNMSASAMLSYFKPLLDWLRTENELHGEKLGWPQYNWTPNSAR
Square brackets hold non-standard residues; d marks the D form. Ends that are not written are not given here. pGlu = O=C1CC[C@@H](C(=O)O)N1
// pKi here means minus log10 of the molar concentration (mol/L)

get_value(item= EWPRPQIPP (pyroglutamic acid (<E) at position 1 (N-terminus)) [EVASIN-9a] , readout=pKi) returns 9.00

GET /value?item= [pGlu]KWAP [EVASIN-5a] &field=pKi returns 5.89

[pGlu]GWAWPRPQIPP [EVASIN-12a] has a reported pKi of 7.60

// field: pKi; key: [pGlu]WGRPPGPPIPP [EVASIN-12b] ; value = 6.82

Data point: [pGlu]GGWPRPGPEIPP [EVASIN-13a] ; pKi = 7.30

[pGlu]GRAPHPPIPP [EVASIN-11c] yielded pKi of 7.40

# pKi of [pGlu]DGPIPP [EVASIN-7a] = 4.40

// [pGlu]SWPGPNIPP [EVASIN-10a] : pKi value = 7.48

pKi recorded for this binder, [pGlu]GRAPGPPIPP [EVASIN-11b] , is 7.24
